Recorded measurements of cytotoxicity at 10 µM, one per entry
# procedure_text: Toxicity liver stage against HepG2, at 10uM
# Type: cell-based
# Set-up: test concentration 10 uM, cell line HepG2-A16-CD81EGFP
# condition_description: human, HepG2-A16-CD81EGFP cells; read-out: INHIBITION
Only the number, expressed in %, is required.

Examples with answers:
# chemical_smiles, assay_metric, test_result
rows = [
    ("COCCNc1cc(C(=O)N2CCOCC2)nc(C)n1", "cytotoxicity at 10 µM", 0.598),
    ("Cc1cnc(N2C[C@@H]3[C@@H](C2)OCC(=O)N3C)nc1", "cytotoxicity at 10 µM", -3.4),
    ("Cc1cc(-n2cnnn2)n2ncnc2n1", "cytotoxicity at 10 µM", -5.66),
    ("CC(C)(N)c1cn([C@@H]2c3ccccc3C3(CCNCC3)[C@H]2O)nn1", "cytotoxicity at 10 µM", -4.67),
    ("CCc1nnc2n1CCN(Cc1csc(Cc3ccccc3)n1)C2", "cytotoxicity at 10 µM", -25),
    ("CN(Cc1nnc(C2CC2)n1C)S(=O)(=O)c1ccccc1F", "cytotoxicity at 10 µM", 16.8),
    ("NC(=O)NC(=O)CCSCc1coc(-c2cccc(Cl)c2)n1", "cytotoxicity at 10 µM", -1.23),
    ("Cc1nc(N)cc(NCc2csc(N(C)C)n2)n1", "cytotoxicity at 10 µM", -5.2),
]

The value of cytotoxicity at 10 µM measured for the compound "CN(C)c1cc(N(C)Cc2cc(C(C)(C)C)n[nH]2)ncn1" turned out to be -0.629

The recorded cytotoxicity at 10 µM for entry "Cc1nnc2n1CCN(C(=O)CN1C(=O)CCOc3ccccc31)C2" equals 4.48

So, "CC(=O)N1CCC(C(=O)NCCN2CCC(C)CC2)CC1" ? Its cytotoxicity at 10 µM was 12.8

# compound "Cc1cc(NCCc2nnc(N)s2)nc(-c2cccnc2)n1" ; its cytotoxicity at 10 µM = -5.44

###

# procedure_text: Toxicity liver stage against HepG2, at 10uM
# Type: cell-based
# Set-up: test concentration 10 uM, cell line HepG2-A16-CD81EGFP
# condition_description: human, HepG2-A16-CD81EGFP cells; read-out: INHIBITION
assay_metric: cytotoxicity at 10 µM (%)
Lab book: enter the figure in %, no units written.

# compound, test_result
data = [
    ("O=C1N(c2cncnc2)CCC12CCCN(Cc1ccccn1)C2 (centres undefined)", -9.35),
    ("COc1cccc(-c2cccc(CN3C[C@H]4CC[C@@H](C3)N(C)C4=O)c2)c1", 6.98),
    ("NC(=O)COc1ccc(CNCc2ccc(Cl)c(F)c2)cc1", -3.64),
]

# compound "CCOCc1nnc(NCc2ccsc2)o1" ; its cytotoxicity at 10 µM = -0.432

Value of cytotoxicity at 10 µM reported for the compound CC1c2ncc(COCC3CCOCC3)n2CCN1C(=O)c1ccoc1 (centres undefined) is 7.01

According to the records, this compound Cc1cccc(CNC2CC(=O)N(Cc3cccc(F)c3)C2)c1 (centres undefined) displays cytotoxicity at 10 µM of 1.22

Query "CN(C)c1ncccc1CNCc1cccc(O)c1" yields cytotoxicity at 10 µM of 5.05

Measured cytotoxicity at 10 µM of CCC(=O)N1CCCC(c2nc(-c3cccnn3)no2)C1 (centres undefined) : -6.45

Note to self: cytotoxicity at 10 µM recorded for "Cc1cccc2c1nc(CCO)n2-c1ccc(C(=O)N2CCCC2)o1" was 7.39

Quick note, cytotoxicity at 10 µM for "Cc1cc(C[C@@H]2CCC[C@H]2NCc2ccccc2F)on1" landed at -6.19

Record "CN(C)[C@@H]1CCN(C(=O)CC2CC2)[C@H]1Cc1cnn(C)c1" . Reported cytotoxicity at 10 µM: -67.3

Per the records, this compound ( "CN(C)C(=O)N[C@H]1CN(Cc2ccc3c(c2)OCO3)[C@@H]2CCCO[C@H]12" ) has cytotoxicity at 10 µM equal to 4.32

Per the records, this compound ( O=c1c2cccnc2cnn1CC(O)c1ccc(F)c(F)c1 (centres undefined) ) has cytotoxicity at 10 µM equal to -7.44
